Target: KRAS G12D (Homo sapiens, UniProt P01116, G12D)
Sequence (P01116 1-188 isoform P01116-2 G12D): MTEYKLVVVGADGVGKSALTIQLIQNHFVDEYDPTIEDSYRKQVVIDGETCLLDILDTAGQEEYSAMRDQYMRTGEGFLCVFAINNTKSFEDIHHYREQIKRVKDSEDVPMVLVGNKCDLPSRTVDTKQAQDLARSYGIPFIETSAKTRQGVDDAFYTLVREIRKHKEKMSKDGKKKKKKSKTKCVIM
Assay: GDP-GTP exchange assay (KRAS G12D);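 note: one dagger IC50 up to 100 nM and two daggers above 100 nM up to 1 μM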
Assay type: biochemical
Conditions: bodipy-GDP/GppNHp exchange with SOS1; 4 h pre-incubation, 2 h reaction
METRIC NAME: G12D_exchange (KRAS_G12D exchange assay IC50)

Example entries and their recorded answers appear below.
Measured G12D_exchange (KRAS_G12D exchange assay IC50), Cc1nc2c(F)c(-c3cccc(Cl)c3Cl)c(CCC#N)cc2c2c1cc([C@H]1[C@H]3C[C@H](CN(c4ccccc4C(F)(F)F)C3)N1C(=O)C1CC1)n2[C@H]1[C@H]2CN[C@@H]1C2 (atropisomer, axis not shown; (Ra)) : †††

Measured G12D_exchange (KRAS_G12D exchange assay IC50), Cc1cc(N2C[C@@H]3C[C@H](C2)N(C(=O)C2CC2)[C@H]3c2cc3c(C)nc4c(F)c(-c5cccc(Cl)c5Cl)c(CCC#N)cc4c3n2[C@H]2[C@H]3CN[C@@H]2C3)cc(F)n1 (atropisomer, axis not shown; (Ra)) : †

Measured G12D_exchange (KRAS_G12D exchange assay IC50), Cc1ccc(F)c(N2C[C@@H]3C[C@H](C2)N(C(=O)C2CC2)[C@H]3c2cc3c(C)nc4c(F)c(-c5cccc(Cl)c5Cl)c(CCC#N)cc4c3n2[C@H]2[C@H]3CN[C@@H]2C3)n1 (atropisomer, axis not shown; (Ra)) : ††

Measured G12D_exchange (KRAS_G12D exchange assay IC50), Cc1nc2c(F)c(-c3cccc(Cl)c3Cl)c(CCC#N)cc2c2c1cc([C@H]1[C@H]3C[C@H](CN(c4cccc(=O)n4C)C3)N1C(=O)C1CC1)n2[C@H]1[C@H]2CN[C@@H]1C2 (atropisomer, axis not shown; (Ra)) : ††

Measured G12D_exchange (KRAS_G12D exchange assay IC50), Cc1nc2c(F)c(-c3cccc(Cl)c3Cl)c(CCC#N)cc2c2c1cc([C@H]1[C@H]3C[C@H](CN(c4ncccn4)C3)N1C(=O)C1CC1)n2[C@H]1[C@H]2CN[C@@H]1C2 (atropisomer, axis not shown; (Ra)) : †

Measured G12D_exchange (KRAS_G12D exchange assay IC50), Cc1nc2c(F)c(-c3cccc(Cl)c3Cl)c(CCC#N)cc2c2c1cc([C@H]1[C@H]3C[C@H](CN(c4ccc(C(F)(F)F)nn4)C3)N1C(=O)C1CC1)n2[C@H]1[C@H]2CN[C@@H]1C2 (atropisomer, axis not shown; (Ra)) : †

Further cases:
Measured G12D_exchange (KRAS_G12D exchange assay IC50), Cc1nc2c(F)c(-c3cccc(Cl)c3Cl)c(CCC#N)cc2c2c1cc([C@H]1[C@H]3C[C@H](CN(c4ncc(C(F)F)s4)C3)N1C(=O)C1CC1)n2[C@H]1[C@H]2CN[C@@H]1C2 (atropisomer, axis not shown; (Ra)) : †

Measured G12D_exchange (KRAS_G12D exchange assay IC50), Cc1nc2c(F)c(-c3cccc(Cl)c3Cl)c(CCC#N)cc2c2c1cc(C1C3CC(CN(C4CCCCC4)C3)N1C(=O)C1CC1)n2C1C2CNC1C2 (atropisomer, axis not shown; (Ra)) : †

Measured G12D_exchange (KRAS_G12D exchange assay IC50), Cc1nc2c(F)c(-c3cccc(Cl)c3Cl)c(CCC#N)cc2c2c1cc([C@H]1[C@H]3C[C@H](CN(c4ccccn4)C3)N1C(=O)C1CC1)n2[C@H]1[C@H]2CN[C@@H]1C2 (atropisomer, axis not shown; (Ra)) : †

Measured G12D_exchange (KRAS_G12D exchange assay IC50), Cc1nc2c(F)c(-c3cccc(Cl)c3Cl)c(CCC#N)cc2c2c1cc([C@H]1[C@H]3C[C@H](CN(c4ccn5ncnc5c4)C3)N1C(=O)C1CC1)n2[C@H]1[C@H]2CN[C@@H]1C2 (atropisomer, axis not shown; (Ra)) : †

Measured G12D_exchange (KRAS_G12D exchange assay IC50), Cc1nc2c(F)c(-c3cccc(Cl)c3Cl)c(CCC#N)cc2c2c1cc([C@H]1[C@H]3C[C@H](CN(c4cccc(C(F)(F)F)c4)C3)N1C(=O)C1CC1)n2[C@H]1[C@H]2CN[C@@H]1C2 (atropisomer, axis not shown; (Ra)) : ††

Measured G12D_exchange (KRAS_G12D exchange assay IC50), Cc1c(F)ccnc1N1C[C@@H]2C[C@H](C1)N(C(=O)C1CC1)[C@H]2c1cc2c(C)nc3c(F)c(-c4cccc(Cl)c4Cl)c(CCC#N)cc3c2n1[C@H]1[C@H]2CN[C@@H]1C2 (atropisomer, axis not shown; (Ra)) : ††

Measured G12D_exchange (KRAS_G12D exchange assay IC50), Cc1nc2c(F)c(-c3cccc(Cl)c3Cl)c(CCC#N)cc2c2c1cc([C@H]1[C@H]3C[C@H](CN(c4cscn4)C3)N1C(=O)C1CC1)n2[C@H]1[C@H]2CN[C@@H]1C2 (atropisomer, axis not shown; (Ra)) : †

* * *

Target: KRAS G12V (Homo sapiens, UniProt P01116, G12V)
Sequence (P01116 1-188 isoform P01116-2 G12V): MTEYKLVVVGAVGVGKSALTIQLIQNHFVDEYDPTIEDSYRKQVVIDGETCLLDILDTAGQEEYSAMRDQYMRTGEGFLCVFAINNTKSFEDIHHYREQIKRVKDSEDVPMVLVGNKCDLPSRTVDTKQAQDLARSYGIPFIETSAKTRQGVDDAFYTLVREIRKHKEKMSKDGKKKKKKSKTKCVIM
Test: GDP-GTP exchange assay (KRAS G12V);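 note: one dagger IC50 up to 100 nM and two daggers above 100 nM up to 1 μM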
Format: biochemical
Conditions: bodipy-GDP/GppNHp exchange with SOS1; 3 h incubation after GppNHp-SOS1
METRIC NAME: G12V_exchange (KRAS_G12V exchange assay IC50)

Example entries and their recorded answers appear below.
Entry Cc1nc2c(F)c(-c3cccc(Cl)c3Cl)c(CCC#N)cc2c2c1cc([C@H]1[C@H]3C[C@H](CN(c4cccc(OC(F)(F)F)c4)C3)N1C(=O)C1CC1)n2[C@H]1[C@H]2CN[C@@H]1C2 (atropisomer, axis not shown; (Ra)) under KRAS G12V (Homo sapiens, UniProt P01116, G12V) had G12V_exchange (KRAS_G12V exchange assay IC50) of †

Entry Cc1ccc(F)c(N2C[C@@H]3C[C@H](C2)N(C(=O)C2CC2)[C@H]3c2cc3c(C)nc4c(F)c(-c5cccc(Cl)c5Cl)c(CCC#N)cc4c3n2[C@H]2[C@H]3CN[C@@H]2C3)n1 (atropisomer, axis not shown; (Ra)) under KRAS G12V (Homo sapiens, UniProt P01116, G12V) had G12V_exchange (KRAS_G12V exchange assay IC50) of †

Entry Cc1cc(N2C[C@@H]3C[C@H](C2)N(C(=O)C2CC2)[C@H]3c2cc3c(C)nc4c(F)c(-c5cccc(Cl)c5Cl)c(CCC#N)cc4c3n2[C@H]2[C@H]3CN[C@@H]2C3)cc(F)n1 (atropisomer, axis not shown; (Ra)) under KRAS G12V (Homo sapiens, UniProt P01116, G12V) had G12V_exchange (KRAS_G12V exchange assay IC50) of †

Entry Cc1nc2c(F)c(-c3cccc(Cl)c3Cl)c(CCC#N)cc2c2c1cc([C@H]1[C@H]3C[C@H](CN(c4ccn5ccnc5c4)C3)N1C(=O)C1CC1)n2[C@H]1[C@H]2CN[C@@H]1C2 (atropisomer, axis not shown; (Ra)) under KRAS G12V (Homo sapiens, UniProt P01116, G12V) had G12V_exchange (KRAS_G12V exchange assay IC50) of †

Entry Cc1nc2c(F)c(-c3cccc(Cl)c3Cl)c(CCC#N)cc2c2c1cc([C@H]1[C@H]3C[C@H](CN(c4ccc(Cl)c(Cl)c4)C3)N1C(=O)C1CC1)n2[C@H]1[C@H]2CN[C@@H]1C2 (atropisomer, axis not shown; (Ra)) under KRAS G12V (Homo sapiens, UniProt P01116, G12V) had G12V_exchange (KRAS_G12V exchange assay IC50) of ††††

Entry Cc1nc2c(F)c(-c3cccc(Cl)c3Cl)c(CCC#N)cc2c2c1cc([C@H]1[C@@H]3COC[C@@H](C3)N1C(=O)C1CC1)n2[C@H]1[C@H]2CN[C@@H]1C2 (atropisomer, axis not shown; (Ra)) under KRAS G12V (Homo sapiens, UniProt P01116, G12V) had G12V_exchange (KRAS_G12V exchange assay IC50) of †

Further cases:
Entry Cc1nc2c(F)c(-c3cccc(Cl)c3Cl)c(CCC#N)cc2c2c1cc([C@H]1CCN(c3ccccc3)CCN1C(=O)C1CC1)n2[C@H]1[C@H]2CN[C@@H]1C2 (atropisomer, axis not shown; (Ra)) under KRAS G12V (Homo sapiens, UniProt P01116, G12V) had G12V_exchange (KRAS_G12V exchange assay IC50) of †

Entry Cc1nc2c(F)c(-c3cccc(Cl)c3Cl)c(CCC#N)cc2c2c1cc([C@H]1[C@H]3C[C@H](CN(c4cccc(C(F)(F)F)c4)C3)N1C(=O)C1CC1)n2[C@H]1[C@H]2CN[C@@H]1C2 (atropisomer, axis not shown; (Ra)) under KRAS G12V (Homo sapiens, UniProt P01116, G12V) had G12V_exchange (KRAS_G12V exchange assay IC50) of †

* * *

Target: KRAS G12D (Homo sapiens, UniProt P01116, G12D)
Assay: GDP-GTP exchange assay (KRAS G12D);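 note: one dagger IC50 up to 100 nM and two daggers above 100 nM up to 1 μM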
Assay type: biochemical
Settings: bodipy-GDP/GppNHp exchange with SOS1; 4 h pre-incubation, 2 h reaction
Method: The inhibitor potency of the exemplified compounds was determined in a fluorescence based guanine nucleotide exchange assay, which measures the exchange of bodipy-GDP (fluorescently labeled GDP) for GppNHp (Non-hydrolyzable GTP analog) to generate the active state of KRAS in the presence of SOS1 (guanine nucleotide exchange factor). […] Fluorescence intensities were measured on a PheraStar plate reader instrument (BMG Labtech) with excitation at 485 nm and emission at 520 nm. […]
METRIC NAME: G12D_exchange (KRAS_G12D exchange assay IC50)

Example entries and their recorded answers appear below.
Measured G12D_exchange (KRAS_G12D exchange assay IC50), COC(=O)N1C[C@@H]2C[C@H](C1)N(C(=O)C1CC1)[C@H]2c1cc2c(C)nc3c(F)c(-c4cccc(Cl)c4Cl)c(CCC#N)cc3c2n1[C@H]1[C@H]2CN[C@@H]1C2 (atropisomer, axis not shown; (Ra)) : †

Measured G12D_exchange (KRAS_G12D exchange assay IC50), Cc1nc2c(F)c(-c3cccc(Cl)c3Cl)c(CCC#N)cc2c2c1cc([C@H]1[C@H]3C[C@H](CN(c4cnc(C(F)(F)F)cn4)C3)N1C(=O)C1CC1)n2[C@H]1[C@H]2CN[C@@H]1C2 (atropisomer, axis not shown; (Ra)) : †

Measured G12D_exchange (KRAS_G12D exchange assay IC50), Cc1nc2c(F)c(-c3cccc(Cl)c3Cl)c(CCC#N)cc2c2c1cc([C@H]1[C@H]3C[C@H](CN(c4cnn(C(F)(F)F)c4)C3)N1C(=O)C1CC1)n2[C@H]1[C@H]2CN[C@@H]1C2 (atropisomer, axis not shown; (Ra)) : †

Measured G12D_exchange (KRAS_G12D exchange assay IC50), COc1ccnc(N2C[C@@H]3C[C@H](C2)N(C(=O)C2CC2)[C@H]3c2cc3c(C)nc4c(F)c(-c5cccc(Cl)c5Cl)c(CCC#N)cc4c3n2[C@H]2[C@H]3CN[C@@H]2C3)n1 (atropisomer, axis not shown; (Ra)) : †

Measured G12D_exchange (KRAS_G12D exchange assay IC50), Cc1nc2c(F)c(-c3cccc(Cl)c3Cl)c(CCC#N)cc2c2c1cc([C@H]1[C@H]3C[C@H](CN(c4ccc(OC(F)F)cc4)C3)N1C(=O)C1CC1)n2[C@H]1[C@H]2CN[C@@H]1C2 (atropisomer, axis not shown; (Ra)) : ††

Further cases:
Measured G12D_exchange (KRAS_G12D exchange assay IC50), Cc1nc2c(F)c(-c3cccc(Cl)c3Cl)c(CCC#N)cc2c2c1cc([C@H]1[C@H]3C[C@H](CN(c4cnccn4)C3)N1C(=O)C1CC1)n2[C@H]1[C@H]2CN[C@@H]1C2 (atropisomer, axis not shown; (Ra)) : †

Measured G12D_exchange (KRAS_G12D exchange assay IC50), Cc1cnc(N2C[C@@H]3C[C@H](C2)N(C(=O)C2CC2)[C@H]3c2cc3c(C)nc4c(F)c(-c5cccc(Cl)c5Cl)c(CCC#N)cc4c3n2[C@H]2[C@H]3CN[C@@H]2C3)c(F)c1 (atropisomer, axis not shown; (Ra)) : †

Measured G12D_exchange (KRAS_G12D exchange assay IC50), COc1ccnc(N2C[C@@H]3C[C@H](C2)N(C(=O)C2CC2)[C@H]3c2cc3c(C)nc4c(F)c(-c5cccc(Cl)c5Cl)c(CCC#N)cc4c3n2[C@H]2[C@H]3CN[C@@H]2C3)c1F (atropisomer, axis not shown; (Ra)) : ††
